# Tested on: NCI-H1341 (Small Cell Lung Carcinoma)
# experiment: combination Emax (second highest fraction inhibited in the dose matrix, 72 h); higher = more inhibition; extreme values may be limits of the assay
readout type: combination Emax
Just the number, please, no unit attached.

// solved cases for combination Emax follow
molecule	test system	combination Emax
Cc1c2c(nn1C)CSCc1cc(n(C)n1)CSc1cc(c3ccccc3c1)OCCCc1c(C(=O)O)n(C)c3c-2c(Cl)ccc13 [AZD5991] + CC1(C)CCC(CN2CCN(c3ccc(C(=O)NS(=O)(=O)c4ccc(NCC5CCOCC5)c([N+](=O)[O-])c4)c(Oc4cnc5[nH]ccc5c4)c3)CC2)=C(c2ccc(Cl)cc2)C1 [Venetoclax] (first compound max 1 µM, 7x7, partner max 1 µM)	NCI-H1341 (Small Cell Lung Carcinoma)	0.634
Cc1c2c(nn1C)CSCc1cc(n(C)n1)CSc1cc(c3ccccc3c1)OCCCc1c(C(=O)O)n(C)c3c-2c(Cl)ccc13 [AZD5991] + Cc1cc2ncnn2cc1Nc1ncc2c(n1)n(C1CCOCC1)c(=O)n2C [AZD7648] (first compound max 1 µM, 7x7, partner max 10 µM)	NCI-H1341 (Small Cell Lung Carcinoma)	0.509

Now let's try a different one.
Ask | Provide value of combination Emax for this record tested with NCI-H1341 (Small Cell Lung Carcinoma): Cc1c2c(nn1C)CSCc1cc(n(C)n1)CSc1cc(c3ccccc3c1)OCCCc1c(C(=O)O)n(C)c3c-2c(Cl)ccc13 [AZD5991] + CN(C)CCCOc1ccc(-c2ccc3ncc4c(c3c2)n(C2CCOCC2)c(=O)n4C)cn1 [AZD0156] (first compound max 1 µM, 7x7, partner max 1 µM)
Reply | 0.379

###

# Tested on: SKG-IIIa (Cervical Carcinoma)
# experiment: combination Emax (second highest fraction inhibited in the dose matrix, 72 h); higher = more inhibition; extreme values may be limits of the assay
Entries and their combination Emax values follow.
Simply state the number, no unit and no words.

Examples with their reported combination Emax follow.
compound	combination Emax
COc1cccc2c1C(=O)c1c(O)c3c(c(O)c1C2=O)C[C@@](O)(C(=O)CO)C[C@@H]3O[C@H]1C[C@H](N)[C@H](O)[C@H](C)O1 [Doxorubicin] + Cc1cc2ncnn2cc1Nc1ncc2c(n1)n(C1CCOCC1)c(=O)n2C [AZD7648] (first compound max 1 µM, 7x7, partner max 10 µM)	0.512
Cc1c2c(nn1C)CSCc1cc(n(C)n1)CSc1cc(c3ccccc3c1)OCCCc1c(C(=O)O)n(C)c3c-2c(Cl)ccc13 [AZD5991] + CC(=O)O[C@H]1C(=O)[C@@]2(C)[C@H]([C@H](OC(=O)c3ccccc3)[C@]3(O)C[C@H](OC(=O)[C@H](O)[C@@H](NC(=O)c4ccccc4)c4ccccc4)C(C)=C1C3(C)C)[C@]1(OC(C)=O)CO[C@@H]1C[C@@H]2O [Paclitaxel] (first compound max 1 µM, 7x7, partner max 3 µM)	0.487

Ask | Name the recorded combination Emax for Cn1cnc2c(F)c(Nc3ccc(Br)cc3Cl)c(C(=O)NOCCO)cc21 [Selumetinib] + CC(C)n1c(=O)n(C)c2cnc3cc(F)c(-c4ccc(OCCCN5CCCCC5)nc4)cc3c21 [AZD1390] (first compound max 10 µM, 7x7, partner max 0.3 µM) .
Reply | 0.2

Ask | Quick one: combination Emax of COc1nnc2ccc(N3CCC(c4ccc(OCCN5CCN(C)C(=O)[C@H]5C)cc4)CC3)nn12 [AZD5153] + C[C@@H]1COCCN1C2=NC(=NC(=C2)C3(CC3)[S@](=N)(=O)C)C4=C5C=CNC5=NC=C4 [AZD6738] (first compound max 1 µM, 7x7, partner max 10 µM) ?
Reply | 0.537

###

# Tested on: MONO-MAC-6 (Acute Myeloid Leukemia)
# experiment: Bliss excess, mean over the matrix (fraction); higher = more synergy
readout type: Bliss excess
A bare number is all that is needed in reply.

compound	readout type	measured
COc1nnc2ccc(N3CCC(c4ccc(OCCN5CCN(C)C(=O)[C@H]5C)cc4)CC3)nn12 [AZD5153] + Cn1cnc2c(F)c(Nc3ccc(Br)cc3Cl)c(C(=O)NOCCO)cc21 [Selumetinib] (first compound max 1 µM, 7x7, partner max 10 µM)	Bliss excess	-0.008

Ask | Requested field: Bliss excess. Item: CS(=O)(=O)CCNCc1ccc(-c2ccc3ncnc(Nc4ccc(OCc5cccc(F)c5)c(Cl)c4)c3c2)o1 [Lapatinib] + NC1(c2ccc(-c3nc4ccn5c(=O)[nH]nc5c4cc3-c3ccccc3)cc2)CCC1 [MK-2206] (first compound max 10 µM, 7x7, partner max 10 µM)
Reply | 0.0302

Ask | For CC1(C)CCC(CN2CCN(c3ccc(C(=O)NS(=O)(=O)c4ccc(NCC5CCOCC5)c([N+](=O)[O-])c4)c(Oc4cnc5[nH]ccc5c4)c3)CC2)=C(c2ccc(Cl)cc2)C1 [Venetoclax] + C1CN(CCC1(C(=O)N[C@@H](CCO)C2=CC=C(C=C2)Cl)N)C3=NC=NC4=C3C=CN4 [Capivasertib] (first compound max 1 µM, 7x7, partner max 3 µM) , what is its reported Bliss excess?
Reply | -0.0214

Ask | Please give the measured Bliss excess for this compound: Cc1nc(Nc2ncc(C(=O)Nc3c(C)cccc3Cl)s2)cc(N2CCN(CCO)CC2)n1 [Dasatinib] + CC(=O)Nc1cccc(-n2c(=O)n(C3CC3)c(=O)c3c(Nc4ccc(I)cc4F)n(C)c(=O)c(C)c32)c1 [Trametinib] (first compound max 2 µM, 7x7, partner max 1 µM)
Reply | -0.0052

Ask | Which Bliss excess value is on record for Cc1c2c(nn1C)CSCc1cc(n(C)n1)CSc1cc(c3ccccc3c1)OCCCc1c(C(=O)O)n(C)c3c-2c(Cl)ccc13 [AZD5991] + CS(=O)(=O)CCNCc1ccc(-c2ccc3ncnc(Nc4ccc(OCc5cccc(F)c5)c(Cl)c4)c3c2)o1 [Lapatinib] (first compound max 1 µM, 7x7, partner max 10 µM) ?
Reply | 0.0012

Ask | Return reported Bliss excess; argument: Cc1c2c(nn1C)CSCc1cc(n(C)n1)CSc1cc(c3ccccc3c1)OCCCc1c(C(=O)O)n(C)c3c-2c(Cl)ccc13 [AZD5991] + C[C@@H]1COCCN1C2=NC(=NC(=C2)C3(CC3)[S@](=N)(=O)C)C4=C5C=CNC5=NC=C4 [AZD6738] (first compound max 1 µM, 7x7, partner max 10 µM)
Reply | -0.02

Ask | Which Bliss excess is reported for this compound? CN(C)CCCOc1ccc(-c2ccc3ncc4c(c3c2)n(C2CCOCC2)c(=O)n4C)cn1 [AZD0156] + CCN(CCO)CCCOc1ccc2c(Nc3cc(CC(=O)Nc4cccc(F)c4)[nH]n3)ncnc2c1 [AZD2811] (first compound max 1 µM, 7x7, partner max 1 µM)
Reply | 0.053

###

Below, each entry is listed alongside its reported Bliss excess.
# Test system: ZR-75-30 (Breast Carcinoma)
# experiment: Bliss excess, mean over the matrix (fraction); higher = more synergy
The response must contain the number and no unit.

Worked examples follow.
molecule	measured
Cc1c2c(nn1C)CSCc1cc(n(C)n1)CSc1cc(c3ccccc3c1)OCCCc1c(C(=O)O)n(C)c3c-2c(Cl)ccc13 [AZD5991] + Cn1cnc2c(F)c(Nc3ccc(Br)cc3Cl)c(C(=O)NOCCO)cc21 [Selumetinib] (first compound max 1 µM, 7x7, partner max 3 µM)	-0.0609
CN(CCO)CC[C@H](CSc1ccccc1)Nc1ccc(S(=O)(=O)NC(=O)c2ccc(N3CCC([C@@H](O)c4ccccc4-c4ccc(Cl)cc4)CC3)cc2)cc1S(=O)(=O)C(F)(F)F [AZD4320] + Nc1ccn([C@@H]2O[C@H](CO)[C@@H](O)C2(F)F)c(=O)n1 [Gemcitabine] (first compound max 1 µM, 7x7, partner max 0.3 µM)	-0.0052
CN(C)CCCOc1ccc(-c2ccc3ncc4c(c3c2)n(C2CCOCC2)c(=O)n4C)cn1 [AZD0156] + C[C@@H]1COCCN1C2=NC(=NC(=C2)C3(CC3)[S@](=N)(=O)C)C4=C5C=CNC5=NC=C4 [AZD6738] (first compound max 1 µM, 7x7, partner max 10 µM)	-0.0305

Ask | // map N#Cc1cnc(Nc2cc(NC[C@H]3CNCCO3)c(C(F)(F)F)cn2)cn1 [SRA737] + O=c1[nH]cc(F)c(=O)[nH]1 [5-Fluorouracil] (first compound max 10 µM, 7x7, partner max 20 µM) to recorded Bliss excess (system: ZR-75-30 (Breast Carcinoma))
Reply | -0.0283

###

# Tested on: IA-LM (Non-Small Cell Lung Carcinoma)
# experiment: Bliss excess, mean over the matrix (fraction); higher = more synergy
Lab note: anything with Bliss excess at or over -0.01 counts as condition met; the rest go in condition not met.

Record excerpt, results attached:
molecule	assigned label
NC1(C(=O)N[C@@H](CCO)c2ccc(Cl)cc2)CCN(c2ncnc3[nH]ccc23)CC1 [Capivasertib] + CCN(CCO)CCCOc1ccc2c(Nc3cc(CC(=O)Nc4cccc(F)c4)[nH]n3)ncnc2c1 [AZD2811] (first compound max 10 µM, 7x7, partner max 1 µM)	condition not met
O=C(c1cc(Cc2n[nH]c(=O)c3ccccc23)ccc1F)N1CCN(C(=O)C2CC2)CC1 [Olaparib] + CC1(C)CCC(CN2CCN(c3ccc(C(=O)NS(=O)(=O)c4ccc(NCC5CCOCC5)c([N+](=O)[O-])c4)c(Oc4cnc5[nH]ccc5c4)c3)CC2)=C(c2ccc(Cl)cc2)C1 [Venetoclax] (first compound max 10 µM, 7x7, partner max 1 µM)	condition not met
CC(=O)Nc1cccc(-n2c(=O)n(C3CC3)c(=O)c3c(Nc4ccc(I)cc4F)n(C)c(=O)c(C)c32)c1 [Trametinib] + Cc1nc(-c2cn3c(n2)-c2ccc(-c4cnn(C(C)(C)C(N)=O)c4)cc2OCC3)n(C(C)C)n1 [Taselisib] (first compound max 1 µM, 7x7, partner max 10 µM)	condition met
CCN(CCO)CCCOc1ccc2c(Nc3cc(CC(=O)Nc4cccc(F)c4)[nH]n3)ncnc2c1 [AZD2811] + C[C@@H]1COCCN1C2=NC(=NC(=C2)C3(CC3)[S@](=N)(=O)C)C4=C5C=CNC5=NC=C4 [AZD6738] (first compound max 1 µM, 7x7, partner max 10 µM)	condition not met
Cc1c2c(nn1C)CSCc1cc(n(C)n1)CSc1cc(c3ccccc3c1)OCCCc1c(C(=O)O)n(C)c3c-2c(Cl)ccc13 [AZD5991] + Nc1ccn([C@@H]2O[C@H](CO)[C@@H](O)C2(F)F)c(=O)n1 [Gemcitabine] (first compound max 1 µM, 7x7, partner max 0.3 µM)	condition not met
Cc1cc2ncnn2cc1Nc1ncc2c(n1)n(C1CCOCC1)c(=O)n2C [AZD7648] + C[C@@H]1COCCN1C2=NC(=NC(=C2)C3(CC3)[S@](=N)(=O)C)C4=C5C=CNC5=NC=C4 [AZD6738] (first compound max 10 µM, 7x7, partner max 10 µM)	condition met

Turning now to a further record.
Ask | Is Bliss excess for NC1(C(=O)N[C@@H](CCO)c2ccc(Cl)cc2)CCN(c2ncnc3[nH]ccc23)CC1 [Capivasertib] + Cn1cnc2c(F)c(Nc3ccc(Br)cc3Cl)c(C(=O)NOCCO)cc21 [Selumetinib] (first compound max 10 µM, 7x7, partner max 10 µM) at or above -0.01?
Reply | condition not met
